Cited source: PubChem BioAssay (NCATS)

Assay: Stat Signaling Pathway (AID 446);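 also: ME-180 cervical cancer cells given 40 pM IL-6 alongside compound; SIE-controlled beta-lactamase reporter measured as 460/530 nm FRET emission ratio; % is scaled to controls: 0 for no effect and ±100 for the full control effect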
Conditions: ME-180 (cervical carcinoma) SIE beta-lactamase reporter, IL-6 stimulated, 5 h; at 17.2 µM (top of the series) unless noted
Records with an inconclusive call do not appear. Calls of active or inactive are those of the source. Calls follow the shape of the dose curve; as a rule, active = well fitted curve in either direction with a large enough effect (not every such curve was filed as active); inconclusive = small, poorly fitted or top-dose-only effect, or another doubt; inactive = flat fitted curve, though single readings scatter.
Value type: activity, negative = inhibition

{"columns": ["Compound", "Value type", "Result"],
 "data": [
  ["Cn1c(=O)c2c3c(sc2n2c(SCc4ccccc4)nnc12)CCCC3", "activity, negative = inhibition", "-27.8% (inactive)"],
  ["COC1=CC(=O)CC(C)C12Oc1c(Cl)c(OC)cc(OC)c1C2=O (centres undefined)", "activity, negative = inhibition", "4.38% (inactive)"],
  ["C=CCc1cccc(/C=N/n2cnnc2)c1O", "activity, negative = inhibition", "7.8% (inactive)"],
  ["COc1cc(Cn2ccnc2)c(OC)cc1Cn1ccnc1", "activity, negative = inhibition", "4.23% (inactive)"],
  ["Nn1c(SCC(=O)Nc2ccc3c(c2)OCCO3)nnc1C(F)(F)F", "activity, negative = inhibition", "9.15% (inactive)"],
  ["Nc1ccc2[nH]ncc2c1", "activity, negative = inhibition", "-0.564% (inactive)"],
  ["COC(=O)c1sc(NC(C)=O)c(C(=O)OC)c1C", "activity, negative = inhibition", "1.36% (inactive)"],
  ["O=C1[C@@H]2C=CC=CC2=NC(=S)N1CCN1CCC(=C(c2ccc(F)cc2)c2ccc(F)cc2)CC1", "activity, negative = inhibition", "6.96% [at 38 µM] (inactive)"],
  ["COc1ccc(N2CC(=O)N(c3ccc(OC)c(OC)c3)CC2=O)cc1OC", "activity, negative = inhibition", "1.83% (inactive)"],
  ["Cc1c(CCC#N)c(N2CCCCC2)n2c(nc3ccccc32)c1C#N", "activity, negative = inhibition", "10.9% (inactive)"],
  ["Cc1ccc(S(=O)(=O)/C(C#N)=C/c2c(N3CCN(C)CC3)nc3ccccn3c2=O)cc1", "activity, negative = inhibition", "1.8% (inactive)"],
  ["COc1ccc(N2C(=O)C3C(C2=O)C2C=CC3C23CC3)c(OC)c1 (centres undefined)", "activity, negative = inhibition", "0.0769% (inactive)"],
  ["c1csc(-c2nn3c(C4CCCCC4)nnc3s2)c1", "activity, negative = inhibition", "20.7% (inactive)"],
  ["Cc1ccc2[nH]c(CCN(C)C)c(CC#N)c2c1", "activity, negative = inhibition", "5.44% (inactive)"],
  ["CCOC(=O)C1=C(C)NC(SCC(=O)Nc2nc(C)cs2)=C(C#N)C1c1cccs1 (centres undefined)", "activity, negative = inhibition", "-27.7% (inactive)"],
  ["O=C(NCCCN1CCOCC1)C1(c2ccccc2)CCOCC1", "activity, negative = inhibition", "5.62% (inactive)"],
  ["COc1ccc(C2C(C#N)=C(N)Oc3cc(C)n(CCN4CCOCC4)c(=O)c32)cc1OC (centres undefined)", "activity, negative = inhibition", "6.24% (inactive)"],
  ["CCOC(=O)C1CSc2[nH]c(=O)sc2C1c1ccccc1 (centres undefined)", "activity, negative = inhibition", "-1.01% (inactive)"],
  ["CCOc1cccc(-c2nn3c(-c4ccco4)nnc3s2)c1", "activity, negative = inhibition", "-0.495% (inactive)"]
]}
